So I've got a bunch of binders here, and I need their rat MASP1 IC50 values.
Target: T1, Recombinant rat MASP1 enzyme (fragment corresponding to amino acids 302-704, C-terminal His Tag) (rat, UniProt Q8CHN8 302-704)
T1 sequence: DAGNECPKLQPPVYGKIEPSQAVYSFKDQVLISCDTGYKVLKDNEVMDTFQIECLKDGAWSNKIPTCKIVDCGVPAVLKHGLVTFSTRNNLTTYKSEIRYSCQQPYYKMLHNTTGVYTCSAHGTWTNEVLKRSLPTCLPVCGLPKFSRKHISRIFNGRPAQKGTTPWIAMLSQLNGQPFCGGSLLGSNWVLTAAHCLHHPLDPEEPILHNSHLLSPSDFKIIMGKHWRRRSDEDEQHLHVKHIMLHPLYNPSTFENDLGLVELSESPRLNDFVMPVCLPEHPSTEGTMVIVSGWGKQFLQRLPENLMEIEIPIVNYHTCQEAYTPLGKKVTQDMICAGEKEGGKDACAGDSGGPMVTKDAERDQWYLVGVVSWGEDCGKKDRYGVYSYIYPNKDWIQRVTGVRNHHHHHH
Experiment: cell-based or functional assay
Bridge positions count the residues as written; N and C are the ends. Ends that are not written are not given here.
Give bare numbers, in nM.

AICSRSLPPICIPD-OH (disulfide 3-11; N-terminus assumed; SMILES CC[C@H](C)[C@H](NC(=O)[C@H](C)N)C(=O)N[C@H]1CSSC[C@@H](C(=O)N[C@H](C(=O)N2CCC[C@H]2C(=O)N[C@@H](CC(=O)O)C(=O)O)[C@@H](C)CC)NC(=O)[C@H]([C@@H](C)CC)NC(=O)[C@@H]2CCCN2C(=O)[C@@H]2CCCN2C(=O)[C@H](CC(C)C)NC(=O)[C@H](CO)NC(=O)[C@H](CCCNC(=N)N)NC(=O)[C@H](CO)NC1=O) [AIC+SRSLPPIC+IPD-OH] :: 50.2
AICSRSLPPICIPD-NH2 (disulfide 3-11; N-terminus assumed; SMILES CC[C@H](C)[C@H](NC(=O)[C@H](C)N)C(=O)N[C@H]1CSSC[C@@H](C(=O)N[C@H](C(=O)N2CCC[C@H]2C(=O)N[C@@H](CC(=O)O)C(N)=O)[C@@H](C)CC)NC(=O)[C@H]([C@@H](C)CC)NC(=O)[C@@H]2CCCN2C(=O)[C@@H]2CCCN2C(=O)[C@H](CC(C)C)NC(=O)[C@H](CO)NC(=O)[C@H](CCCNC(=N)N)NC(=O)[C@H](CO)NC1=O) [AIC+SRSLPPIC+IPD-NH2] :: 83.4

Next item in the queue.
Problem: For the binder shown here, GICSRSLPPICIPD-OH (disulfide 3-11; N-terminus assumed; SMILES CC[C@H](C)[C@H](NC(=O)CN)C(=O)N[C@H]1CSSC[C@@H](C(=O)N[C@H](C(=O)N2CCC[C@H]2C(=O)N[C@@H](CC(=O)O)C(=O)O)[C@@H](C)CC)NC(=O)[C@H]([C@@H](C)CC)NC(=O)[C@@H]2CCCN2C(=O)[C@@H]2CCCN2C(=O)[C@H](CC(C)C)NC(=O)[C@H](CO)NC(=O)[C@H](CCCNC(=N)N)NC(=O)[C@H](CO)NC1=O) [GIC+SRSLPPIC+IPD-OH] , give the reported rat MASP1 IC50.
Solution: 68.6
